The values you see were collected from patent US20240398805A1.

test system: HCC827-YVMA cells (human ERBB2 exon20 insertion mutant A775_G776ins YVMA); assay: Cell growth inhibition (CellTiter-Glo, 3 days) in HCC827-YVMA; assay type: cell-based; settings: 72 h, 3 days after administration
Listed next: entries and their corresponding GI50.

Write down GI50 measured for item C=CC(=O)N1CCC(Nc2cc3c(Nc4ccc(Oc5ccnc(N6CC[C@@H](F)C6)c5)cc4F)ncnc3cc2OC)CC1
< 30 nM

Write down GI50 measured for item C=CC(=O)N1CCC(Nc2cc3c(Nc4ccc(Oc5ccnc(-c6csc(C)n6)c5)cc4F)ncnc3cc2OC)CC1
< 30 nM

Write down GI50 measured for item C=CC(=O)N1CCC(Oc2cc3c(Nc4ccc(Oc5ccnc(N6CCN(C(C)C)CC6)c5)cc4F)ncnc3cc2OC)CC1
≥ 1000 nM

Write down GI50 measured for item C=CC(=O)N1CCC(Nc2cc3c(Nc4ccc(Oc5ccnc(N6CC7(CCOCC7)C6)c5)cc4F)ncnc3cc2OC)CC1
< 30 nM

Write down GI50 measured for item C=CC(=O)N1CCC(Nc2cc3c(Nc4ccc(Oc5ccnc(N6CC(C#N)C6)c5)cc4F)ncnc3cc2OC)CC1
30 to 60 nM

Write down GI50 measured for item C=CC(=O)N1CCC(Nc2cc3c(Nc4ccc(Oc5ccnc(N6CC(O)C6)c5)cc4F)ncnc3cc2OC)CC1
100 to 300 nM

Write down GI50 measured for item C=CC(=O)N1CCC(Nc2cc3c(Nc4ccc(Oc5ccnc(N6CC7CCCC7C6)c5)cc4F)ncnc3cc2OC)CC1 (centres unmarked)
60 to 100 nM

Write down GI50 measured for item C=CC(=O)N1CCC(Nc2cc3c(Nc4ccc(OCc5ccc(N6CCOCC6)cn5)cc4F)ncnc3cc2OC)CC1
300 to 600 nM

Write down GI50 measured for item C=CC(=O)N1CCC(Nc2cc3c(Nc4ccc(Oc5ccnc(C(=O)NC(C)(C)C)c5)cc4F)ncnc3cc2OC)CC1
60 to 100 nM

Write down GI50 measured for item CC#CC(=O)N1CCC(Nc2cc3c(Nc4ccc(Oc5ccn(-c6cnc(C)c(F)c6)n5)cc4F)ncnc3cc2OC)CC1
≥ 1000 nM

Write down GI50 measured for item C=CC(=O)N1CCC(Nc2cc3c(Nc4ccc(Oc5ccnc(N6CCO[C@@H](CO)C6)c5)cc4F)ncnc3cc2OC)CC1
60 to 100 nM

Write down GI50 measured for item C=CC(=O)N1CCC(Nc2cc3c(Nc4ccc(Oc5ccnc(C(=O)OC)c5)cc4F)ncnc3cc2OC)CC1
600 to 1000 nM

Write down GI50 measured for item C=CC(=O)N1CCC(Nc2cc3c(Nc4ccc(Oc5ccnc(N6CC(F)(F)C(F)(F)C6)c5)cc4F)ncnc3cc2OC)CC1
30 to 60 nM

Write down GI50 measured for item C=CC(=O)N1CCC(Nc2cc3c(Nc4ccc(Oc5ccnc(-n6cc(C)cn6)n5)cc4F)ncnc3cc2OC)CC1
< 30 nM

* * *

Here's what we have: GI50 numbers for A431 cells.

Here is how some compounds turned out for GI50.
{"compound": "C=CC(=O)N1CCC(Nc2cc3c(Nc4ccc(Oc5ccnc(N6CC(S(C)(=O)=O)C6)c5)cc4F)ncnc3cc2OC)CC1 [Example 143]", "result value": "≥ 1000 nM"}
{"compound": "C=CC(=O)N1CCC(Nc2cc3c(Nc4ccc(Oc5ccnc(N6CCOC[C@H]6CO)c5)cc4F)ncnc3cc2OC)CC1 [Example 126]", "result value": "≥ 1000 nM"}
{"compound": "C=CC(=O)N1CCC(Nc2cc3c(Nc4ccc(Oc5ccnc(N6C[C@@H](C)N[C@@H](C)C6)c5)cc4F)ncnc3cc2OC)CC1 [Example 154]", "result value": "≥ 1000 nM"}

Write down GI50 measured for item C=CC(=O)N1CCC(Nc2cc3c(Nc4ccc(Oc5ccnc(N6C[C@H](OC)[C@H](OC)C6)c5)cc4F)ncnc3cc2OC)CC1 [Example 189]
≥ 1000 nM

Write down GI50 measured for item C=CC(=O)N1CCC(Nc2cc3c(Nc4ccc(Oc5ccnc(N6CC[C@@H](C)C6)c5)cc4F)ncnc3cc2OC)CC1 [Example 197]
300 to 600 nM

* * *

Here's what we have: GI50 numbers for A431 cells.

{"smiles entry": "C=C(F)C(=O)N1CCC(Nc2cc3c(Nc4ccc(Oc5ccn(-c6cnc(C)c(F)c6)n5)cc4F)ncnc3cc2OC)CC1", "GI50": "≥ 1000 nM"}
{"smiles entry": "C=CC(=O)N1CCC(Nc2cc3c(Nc4ccc(Oc5ccnc(N6CC(COC)C6)c5)cc4F)ncnc3cc2OC)CC1", "GI50": "≥ 1000 nM"}
{"smiles entry": "C=CC(=O)N1CCC(Nc2cc3c(Nc4ccc(Oc5ccnc(N6CCC(F)(F)CC6)c5)cc4F)ncnc3cc2OC)CC1", "GI50": "≥ 1000 nM"}

Query molecule follows.
Give the observed GI50 of C=CC(=O)N1CCC(Nc2cc3c(Nc4ccc(Oc5ccnc(N6CCO[C@@H](C)C6)c5)cc4F)ncnc3cc2OC)CC1 for A431 cells.
600 to 1000 nM

* * *

Here's what we have: GI50 numbers for A431 cells.

Here is how some compounds turned out for GI50.
{"smiles entry": "C=CC(=O)N1CCC(Nc2cc3c(Nc4ccc(Oc5ncc(-c6ccc(C)nc6)s5)cc4F)ncnc3cc2OC)CC1", "GI50": "300 to 600 nM"}
{"smiles entry": "C=CC(=O)N1CCC(Nc2cc3c(Nc4ccc(Oc5ccnc(N6CC(F)(F)C6)c5)cc4F)ncnc3cc2OC)CC1", "GI50": "600 to 1000 nM"}

Write down GI50 measured for item C=CC(=O)N1CCC(Nc2cc3c(Nc4ccc(Oc5ccc(N6C[C@@H](C)O[C@@H](C)C6)cn5)cc4F)ncnc3cc2OC)CC1
600 to 1000 nM

Write down GI50 measured for item C=CC(=O)N1CCC(Nc2cc3c(Nc4ccc(Oc5ccnc(N6CC(CO)C6)c5)cc4F)ncnc3cc2OC)CC1
600 to 1000 nM

Write down GI50 measured for item C=CC(=O)N1CCC(Nc2cc3c(Nc4ccc(Oc5ccnc(-c6cnn(C)c6)c5)cc4F)ncnc3cc2OC)CC1
≥ 1000 nM

Write down GI50 measured for item C=CC(=O)N1CCC(Nc2cc3c(Nc4ccc(Oc5nc(-c6ccc(C)nc6)cs5)cc4F)ncnc3cc2OC)CC1
300 to 600 nM

Write down GI50 measured for item C=CC(=O)N1CCC(Nc2cc3c(Nc4ccc(Oc5ccn(-c6ccnc(OC)n6)n5)cc4F)ncnc3cc2OC)CC1
300 to 600 nM

Write down GI50 measured for item C=CC(=O)N1CCC(Nc2cc3c(Nc4ccc(Oc5ccnc(N6CCS(=O)(=O)CC6)c5)cc4F)ncnc3cc2OC)CC1
≥ 1000 nM

Write down GI50 measured for item C=CC(=O)N1CCC(Nc2cc3c(Nc4ccc(Oc5ccnc(N6C[C@H](OC)[C@@H](OC)C6)c5)cc4F)ncnc3cc2OC)CC1
100 to 300 nM

Write down GI50 measured for item C=C(F)C(=O)N1CCC(Nc2cc3c(Nc4ccc(Oc5ccn(-c6ccc(C)nc6)n5)cc4F)ncnc3cc2OC)CC1
≥ 1000 nM

Write down GI50 measured for item C=CC(=O)N1CCC(Nc2cc3c(Nc4ccc(Oc5ccnc(N(C)C)c5)cc4F)ncnc3cc2OC)CC1
100 to 300 nM

Write down GI50 measured for item C=CC(=O)N1CC[C@@H](Oc2cc3c(Nc4ccc(Oc5ccn(-c6cnc(OC)nc6)n5)cc4F)ncnc3cc2OC)C1
≥ 1000 nM

Write down GI50 measured for item C=CC(=O)N1CCC(Nc2cc3c(Nc4ccc(Oc5nc(-c6cnc(OC)nc6)cs5)cc4F)ncnc3cc2OC)CC1
100 to 300 nM

Write down GI50 measured for item C=CC(=O)N1CCC(Nc2cc3c(Nc4ccc(Oc5ccnc(N6CCCN(C)CC6)c5)cc4F)ncnc3cc2OC)CC1
≥ 1000 nM

* * *

test system: A431 cells
observation type: GI50

{"molecule": "C=CC(=O)Nc1cc2c(Nc3ccc(Oc4ccnc(N5C[C@@H](C)O[C@@H](C)C5)c4)cc3F)ncnc2cc1OCC", "GI50": "≥ 1000 nM"}
{"molecule": "C=CC(=O)N1CC2(CC(Oc3cc4c(Nc5ccc(Oc6ccn(-c7cnc(OC)nc7)n6)cc5F)ncnc4cc3OC)C2)C1", "GI50": "≥ 1000 nM"}
{"molecule": "C=CC(=O)N1CCC(Nc2cc3c(Nc4ccc(Oc5ccnc(-c6nc(C)c(C)s6)c5)cc4F)ncnc3cc2OC)CC1", "GI50": "600 to 1000 nM"}
{"molecule": "C=CC(=O)N1CCC(Nc2cc3c(Nc4ccc(Oc5ccnc(N6CC7(COC7)C6)c5)cc4F)ncnc3cc2OC)CC1", "GI50": "≥ 1000 nM"}
{"molecule": "C=CC(=O)N1CCC(Nc2cc3c(Nc4ccc(Oc5ccnc(N6CC(F)(F)C(F)(F)C6)c5)cc4F)ncnc3cc2OC)CC1", "GI50": "600 to 1000 nM"}
{"molecule": "C=CC(=O)N1CCC(Nc2cc3c(Nc4ccc(OCc5ccc(N6CCOCC6)cn5)cc4F)ncnc3cc2OC)CC1", "GI50": "300 to 600 nM"}
{"molecule": "C=CC(=O)N1CCC(Nc2cc3c(Nc4ccc(Oc5ccnc(N6CCN(C)[C@@H](C)C6)c5)cc4F)ncnc3cc2OC)CC1", "GI50": "≥ 1000 nM"}
{"molecule": "C=CC(=O)N1CCC(Nc2cc3c(Nc4ccc(Oc5ccnc(-c6ccn[nH]6)c5)cc4F)ncnc3cc2OC)CC1", "GI50": "300 to 600 nM"}
{"molecule": "C=CC(=O)N1CCC(Nc2cc3c(Nc4ccc(Oc5ccnc(N6CC7C(C6)C7(F)F)c5)cc4F)ncnc3cc2OC)CC1 (stereo not drawn)", "GI50": "60 to 100 nM"}
{"molecule": "C=CC(=O)N1CCC(Nc2cc3c(Nc4ccc(Oc5ccn(-c6ccc(OC)nn6)n5)cc4F)ncnc3cc2OC)CC1", "GI50": "100 to 300 nM"}

Give the observed GI50 of C=CC(=O)N1CCC(Nc2cc3c(Nc4ccc(Oc5ccnc(N6CCCC(C#N)C6)c5)cc4F)ncnc3cc2OC)CC1 (stereo not drawn) for A431 cells.
100 to 300 nM

Give the observed GI50 of C=CC(=O)N1CCC(Nc2cc3c(Nc4ccc(Oc5ccnc(N6CCNC(C)(C)C6)c5)cc4F)ncnc3cc2OC)CC1 for A431 cells.
≥ 1000 nM

Give the observed GI50 of C=CC(=O)N1CCC(Nc2cc3c(Nc4ccc(Oc5ccnc(N6CCC[C@@H](OC)C6)c5)cc4)ncnc3cc2OC)CC1 for A431 cells.
≥ 1000 nM

Give the observed GI50 of C=CC(=O)N1CCC(Nc2cc3c(Nc4ccc(Oc5ccn(-c6cc(OC)ncn6)n5)cc4F)ncnc3cc2OC)CC1 for A431 cells.
300 to 600 nM

Give the observed GI50 of C=CC(=O)N1CCC(Nc2cc3c(Nc4ccc(Oc5ccnc(N6CCN(C)[C@H](C)C6)c5)cc4F)ncnc3cc2OC)CC1 for A431 cells.
≥ 1000 nM

Give the observed GI50 of C=CC(=O)N1CCC(Nc2cc3c(Nc4ccc(Oc5ccnc(N6CCC(OC)C(C)(C)C6)c5)cc4F)ncnc3cc2OC)CC1 (stereo not drawn) for A431 cells.
300 to 600 nM
